assay: Selectivity index, ratio of CC50 for human HeLa-RW cells to EC50 for Coxsackievirus B3; assay type: toxicity; settings: read-out: Ratio CC50/EC50
Readings of selectivity ratio for the listed compounds
Number only, please.

Here are 5 compounds together with their reported answers.
CC(C)n1ncc2c(C(=O)Nc3cccc(S(=O)(=O)N(C)C)c3)cc(-c3cccs3)nc21
12
CC(C)n1ncc2c(C(=O)Nc3ccncn3)cc(-c3cccs3)nc21
33.3
CC(C)n1ccc2c(C(=O)Nc3ccccn3)cc(-c3cccs3)nc21
8.5
CC(C)n1ncc2c(C(=O)Nc3ccccc3F)cc(-c3ccccc3)nc21
8.3
CC(C)n1ncc2c(C(=O)Nc3ncccn3)cc(-c3ccsc3)nc21
33.3

`CC(C)n1ncc2c(C(=O)Nc3ncccn3)cc(-c3cccs3)nc21` has a reported selectivity ratio of 62.5

# selectivity ratio of `CC(C)n1ncc2c(C(=O)Nc3ccccc3F)cc(-c3cccnc3)nc21` = 5.4

Looking up `CC(C)n1ncc2c(C(=O)Nc3ccc(F)cc3)cc(-c3ccsc3)nc21` , I see its selectivity ratio listed as 19.2

Reported selectivity ratio of `CC(C)n1ncc2c(C(=O)Nc3cccnc3)cc(-c3cccs3)nc21` : 62.5

Record `CC(C)n1ncc2c(C(=O)Nc3cc(C(N)=O)ccc3F)cc(-c3cccs3)nc21` , field selectivity ratio: 23.5

====

experiment: Selectivity index, ratio of CC50 for human HeLa-RW cells to EC50 for Poliovirus 3; type: toxicity; conditions: read-out: Ratio CC50/EC50
Result type: selectivity ratio

Example compounds with recorded selectivity ratio:
CC(C)n1ncc2c(C(=O)Nc3cc(C(N)=O)ccc3F)cc(-c3cccs3)nc21
3.8
CC(C)n1ncc2c(C(=O)Nc3ccccc3F)cc(-c3cccs3)nc21
1.8
CC(C)n1ncc2c(C(=O)Nc3cccc(C(N)=O)c3)cc(-c3cccs3)nc21
2.9

Noted for `CC(C)n1ncc2c(C(=O)Nc3cccnc3)cc(-c3cccs3)nc21` : its selectivity ratio reads 2.5

# compound `CC(C)n1ncc2c(C(=O)Nc3cccc(S(N)(=O)=O)c3)cc(-c3cccs3)nc21` ; its selectivity ratio = 10

====

test system: Coxsackievirus B3; test: Antiviral activity against Coxsackievirus B3 infected in human HeLa-RW cells assessed as protection against virus-induced cytopathic effect after 3 to 4 days by crystal violet staining-based spectrophotometric method; type: functional, cell-based; settings: Enterovirus B
Measured EC50, listed per entry.
# unit: nM | format: bare number

get_value(item= `CC(C)n1ncc2c(C(=O)Nc3ccc(F)c(F)c3)cc(-c3cccs3)nc21` , readout=EC50) returns 1300

Entry `CC(C)n1ncc2c(C(=O)Nc3cccc(F)c3F)cc(-c3cccs3)nc21` ; EC50 = 2700

Documented EC50 of `CC(C)n1ncc2c(C(=O)Nc3ccccc3F)cc(-c3cncs3)nc21` : 3300

====

assay: Cytotoxicity against human HeLa-RW cells after 3 to 4 days by crystal violet staining-based spectrophotometric method; type: cell-based; settings: hela-rw
Result type: CC50 (µM)
Use µM as the unit, but write only the number.

CC(C)n1ncc2c(C(=O)Nc3ccccc3F)cc(-c3cccnc3)nc21
37.5
CC(C)n1ncc2c(C(=O)Nc3ccccn3)cc(-c3ccsc3)nc21
18
CC(C)n1ncc2c(C(=O)Nc3ccc(F)cn3)cc(-c3cccs3)nc21
37.5

The compound listed as `CC(C)n1ncc2c(C(=O)N3CCc4cc(F)ccc43)cc(-c3cccs3)nc21` shows CC50 equal to 18.8

Looking up `CC(C)n1ncc2c(C(=O)Nc3cccnc3)cc(-c3ccsc3)nc21` , I found its CC50 recorded as 18

Value source: ChEMBL document CHEMBL4024801
